- tested-system: Prostaglandin G/H synthase 1 (Homo sapiens)
- Sequence (P23219 whole entry): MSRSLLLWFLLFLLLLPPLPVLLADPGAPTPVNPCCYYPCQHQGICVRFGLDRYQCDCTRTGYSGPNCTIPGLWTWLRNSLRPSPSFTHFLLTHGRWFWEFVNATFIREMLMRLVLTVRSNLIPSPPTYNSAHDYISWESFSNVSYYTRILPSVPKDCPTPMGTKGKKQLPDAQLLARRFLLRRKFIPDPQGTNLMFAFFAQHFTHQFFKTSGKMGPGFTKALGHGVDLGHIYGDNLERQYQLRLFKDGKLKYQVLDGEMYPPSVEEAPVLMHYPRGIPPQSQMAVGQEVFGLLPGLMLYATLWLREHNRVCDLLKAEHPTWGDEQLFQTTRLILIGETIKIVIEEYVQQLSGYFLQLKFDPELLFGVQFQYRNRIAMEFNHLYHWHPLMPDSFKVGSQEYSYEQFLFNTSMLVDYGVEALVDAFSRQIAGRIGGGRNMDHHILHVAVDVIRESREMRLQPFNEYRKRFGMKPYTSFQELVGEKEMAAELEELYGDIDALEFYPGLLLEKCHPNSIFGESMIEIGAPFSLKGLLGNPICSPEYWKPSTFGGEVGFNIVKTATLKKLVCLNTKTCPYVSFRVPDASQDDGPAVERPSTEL
- assay-comment: biochemical
- Type: cell-based, COS
I'd appreciate it if you could supply IC50 values for the items below.

Hello, I am looking for reported IC50 with Prostaglandin G/H synthase 1 (Homo sapiens) for CS(=O)(=O)c1ccc(-c2cc(C(F)(F)F)nc(NC3CCOCC3)n2)cc1 . Could you help?
> 91.6 µM

Then this compound: CS(=O)(=O)c1ccc(-c2cc(OCC(F)(F)F)nc(NC3CCCCC3)n2)cc1
6.32 µM

Then this compound: Cc1ccc(Nc2nc(-c3ccc(S(C)(=O)=O)cc3)cc(C(F)(F)F)n2)cc1
> 100 µM

Then this compound: Cc1c(-c2ccc(S(C)(=O)=O)cc2)nc(NC2CCCCC2)nc1C(F)(F)F
> 100 µM

Then this compound: CS(=O)(=O)c1ccc(-c2cc(C(F)(F)F)nc(NC3CCNCC3)n2)cc1
> 100 µM

For every item below, please supply its IC50.
1. CC(C)CNc1nc(-c2ccc(S(C)(=O)=O)cc2)cc(C(F)(F)F)n1
2. Cc1cc(-c2ccc(S(C)(=O)=O)cc2)nc(NC2CCCCC2)n1

> 66.2 µM
> 100 µM

For every item below, please supply its IC50.
1. CCCCNc1nc(-c2ccc(S(C)(=O)=O)cc2)cc(C(F)(F)F)n1
2. Cc1cnc(NC2CCCCC2)nc1-c1ccc(S(C)(=O)=O)cc1
3. CS(=O)(=O)c1ccc(-c2cc(C(F)(F)F)nc(Nc3ccccc3)n2)cc1
4. CS(=O)(=O)c1ccc(-c2cc(C(F)(F)F)nc(NC3CCCCC3)n2)cc1
5. NS(=O)(=O)c1ccc(-c2cc(C(F)(F)F)nc(NC3CCCCC3)n2)cc1

1: > 100 µM; 2: > 100 µM; 3: > 100 µM; 4: > 58.4 µM; 5: 0.167 µM

For every item below, please supply its IC50.
1. CCCCNc1nc(-c2ccc(S(N)(=O)=O)cc2)cc(C(F)(F)F)n1
2. CS(=O)(=O)c1ccc(-c2cc(N)nc(NC3CCCCC3)n2)cc1
3. CS(=O)(=O)c1ccc(-c2cc(C(F)(F)F)nc(NCC3CCCCC3)n2)cc1
4. CCCNc1nc(-c2ccc(S(C)(=O)=O)cc2)cc(C(F)(F)F)n1
5. CS(=O)(=O)c1ccc(-c2ccnc(NC3CCCCC3)n2)cc1
6. CS(=O)(=O)c1ccc(-c2cc(C(N)=O)nc(NC3CCCCC3)n2)cc1
7. CS(=O)(=O)c1ccc(-c2cc(C(F)(F)F)nc(N)n2)cc1

1: 0.7 µM; 2: > 100 µM; 3: > 100 µM; 4: > 100 µM; 5: > 100 µM; 6: > 100 µM; 7: > 100 µM
